Tested on: OVCAR-5 ovarian
ASSAY: NCI-60 one-dose screen, 48 h (100 = growth as untreated, 0 = no growth, -100 = all killed)
CONDITION_PARAMETERS: 10 µM unless noted
The panel holds about 83,000 compounds, 20% with a hit somewhere; the sample as a whole holds those more often.
Task for the reader: assign each of the following compounds its reported growth.
# output: bare number, implied unit %

Given the compound O=C1CC(=O)N2CSCN(C(c3ccccc3)c3nc4ncncc4[nH]3)C2=N1 (stereo unspecified) , what is its reported growth?
111

Which growth reading was recorded for the compound COC[C@]12CCC(C)(C)C[C@H]1C1=CC[C@@H]3[C@@]4(C)CCCNC(C)(C)[C@@H]4CC[C@@]3(C)[C@]1(C)CC2 ?
5.67

Would you kindly share the measured growth for COc1ccc([C@@H]2[C@@H](O)C(=O)N2c2cc(OC)c(OC)c(OC)c2)cc1F ?
31.5

Quick check: growth of CC1=NC2=NN3C(=NN2C(c2ccccc2)=C1)N=NC(c1ccc(Br)cc1)=C3c1ccc(Br)cc1 ?
104

What value of growth has been reported for the following compound? O=C(CNc1nc(-c2cccc([N+](=O)[O-])c2)cs1)Nc1cccc([N+](=O)[O-])c1
-12.9

Reported growth for Nc1nc(Nc2ccccc2SSc2ccccc2Nc2nc(N)nc(-c3ccccc3)n2)nc(-c2ccccc2)n1 : what is it?
107

Would you kindly share the measured growth for O=C(NCCn1ccnc1)c1ccc(-c2nc3ccc4[nH]ncc4c3c3c2CCCC3)cc1 ?
93.9

Please look up its growth: N#Cc1cnc2ccc(-c3cnc(N)nc3)cc2c1N1CCc2cc(F)c(Cl)cc21
19.8

Value lookup for growth; key = Cc1ccc(NC(=O)c2ccc(CN3CCN(C)CC3)cc2)cc1Oc1ccc(-c2[nH]nc3ncnc(N)c23)cc1
101

Please report the recorded growth for C=CCn1c(-c2nc3ccc(C(=C(C#N)C#N)c4ccccc4)cc3[nH]2)cc2cc(Br)ccc21 .
77.5

Sample O=C1Nc2ccccc2/C1=C/c1ccc(CO)n1-c1ccc(Cl)cc1 — what was its growth?
89.8

So what's the measured growth for this one? CCn1c(SCC(=O)Nc2cccc(C(=O)/C=C/c3cc(OC)c(OC)c(OC)c3)c2)nc2ccccc2c1=O
27.7

Request the reported growth associated with CC(C)(C)CC(C)(C)n1nnnc1C(Nc1nccs1)c1cc2cccc3ccc4cccc1c4c32 (stereo unspecified)
84.6

Query (compound): Cn1ccnc1C(=O)/C=C/c1ccc(NC(=O)c2c(F)c(F)c(F)c(F)c2F)cc1 ; field requested: growth
111

growth for O=C(CSc1nc2ccccc2c(=O)n1-c1ccccc1)Nc1cccc(C(=O)/C=C/c2ccccc2)c1 ?
96.6

Requested read-out: growth. Entry: CCc1cccc(NC(=O)CNc2cc(S(=O)(=O)N(C)C)cc(C)c2C)c1
84.1

Can you share its growth? I mean this compound: CCO/C=N/C1=C(C#N)C(c2ccc(F)cc2)c2sc3c(C)cccc3c2O1 (stereo unspecified)
25.6

Any idea what growth was measured for CCO/C=N/C1=C(C#N)C(c2ccc(OC)cc2)c2sc3c(C)cccc3c2O1 (stereo unspecified) ?
34.4

Can you look up the measured growth of CC(C)c1ccc(NCc2cn(-c3ccc(C(=O)O)cc3)nc2-c2cc(C(F)(F)F)cc(C(F)(F)F)c2)cc1 for me?
103

Query (compound): CCO/C=N/C1=C(C#N)C(c2ccc(OC)cc2)c2sc3c(CC)cccc3c2O1 (stereo unspecified) ; field requested: growth
43.5

Consider the compound CC(=O)C1=C(C)NC(NNC(N)=S)=NC1c1ccccc1 (stereo unspecified) and give its measured growth.
90

Sample O=C(CN1CCN(c2cc(=O)n(-c3ccccc3)c3ccccc23)CC1)Nc1nc(-c2ccccc2)cs1 — what was its growth?
94.1

Which value of growth has been reported for COc1c(N2CC3CCCNC3C2)c(F)cc2c(=O)c(C(=O)N/N=C/c3ccccc3)cn(C3CC3)c12 (stereo unspecified) in the records?
107

For the compound shown here, CCCCCCCn1cc2c(NCCc3ccccc3)ncnc2n1 , give the reported growth.
108

Name the reported growth value associated with the compound N/C(=N\C(N)=N\c1nc2ccccc2s1)c1ccncc1Cl
61.1

Name the recorded growth for COc1cc(-c2nn(C(C)(C)C)cc2-c2ccnc(NCCCNS(=O)(=O)c3ccc(C)cc3)n2)ccc1Cl .
88.1
